- assayed_system: T1, histidine-tagged soluble human CD33 (hCD33-His) (human, UniProt P20138 18-259)
- T1 construct: Human CD33 extracellular region with six histidines at the C-terminus, made in CHO/DG44 cells
- T1 sequence (P20138 other isoform, or with tags, fused parts or gaps limits assumed): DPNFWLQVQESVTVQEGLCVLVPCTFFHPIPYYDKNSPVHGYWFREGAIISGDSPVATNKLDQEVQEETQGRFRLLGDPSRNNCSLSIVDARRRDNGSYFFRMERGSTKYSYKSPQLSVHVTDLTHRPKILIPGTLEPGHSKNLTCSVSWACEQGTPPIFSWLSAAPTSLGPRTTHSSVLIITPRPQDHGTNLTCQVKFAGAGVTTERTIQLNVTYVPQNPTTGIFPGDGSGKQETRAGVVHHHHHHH
- run_description: SPR (Biacore T-100), antibody captured on anti-human IgG, hCD33-His as analyte
quantity_name: binding result

anti-CD33 chimeric antibody KM4054 (antibody, V domains shown, Expressed in FUT8 knockout CHO cells, so no core fucose) VH: QLQETGPGLVKPSQSLSLTCSVTGYTITSGYEWTWIRKFPGNRMEWMGYINSSGSTDYNPSLKSRVSITRDTSKNQFFLQLNSVTTEDTATYFCTRWDRWGPGVMVTVSS VL: DVVLTQTLVAQPVRLGDQASISCRSSQSLVHSDGHTYLEWYLQKPGQSPQLLIYEISNRFSGVPDRFSGSGSGSDFTLKISRVEPEDLGLYYCFQGTHDLPTFGGGTKLELK :: binds
modified CD33 chimeric antibody ver.1 (antibody, V domains shown) VH: QLQETGPGLVKPSQSLSLTCSVTGYTITSGYEWTWIRKFPGNRMEWMGYIYSSGSTDYNPSLKSRVSITRDTSKNQFFLQLNSVTTEDTATYFCTRWDRWGPGVMVTVSS VL: DVVLTQTLVAQPVRLGDQASISCRSSQSLVHSDGHTYLEWYLQKPGQSPQLLIYEISNRFSGVPDRFSGSGSGSDFTLKISRVEPEDLGLYYCFQGTHDLPTFGGGTKLELK :: binds
